System: high affinity tryptophan transporter
protocol-summary: Competition of unlabeled substrates with radiolabeled tryptophan uptake, high-affinity system, macrophages
Format: cell-based, human
details: unlabeled competitor 4 μM, radiolabeled tryptophan 125 nM
recorded-endpoint: effect of 4 μM unlabeled competitor on tryptophan uptake

compound: CC(C)C[C@H](N)C(=O)O [leucine]
recorded-measurement: little impact

compound: N[C@@H](Cc1ccccc1)C(=O)O [phenylalanine]
recorded-measurement: little impact

compound: CC(C)[C@H](N)C(=O)O [VAL]
recorded-measurement: little impact

compound: CC[C@H](C)[C@H](N)C(=O)O [ILE]
recorded-measurement: little impact

compound: NCCCC[C@H](N)C(=O)O [LYS]
recorded-measurement: little impact

compound: N[C@@H](Cc1ccc(O)cc1)C(=O)O [TYR, tyrosine]
recorded-measurement: little impact

compound: CSCC[C@H](N)C(=O)O [MET]
recorded-measurement: little impact

compound: N[C@@H](Cc1c[nH]cn1)C(=O)O [HIS]
recorded-measurement: little impact

compound: C[C@@H](O)[C@H](N)C(=O)O [THR]
recorded-measurement: little impact
